The entries below come with measured EC50 values attached.
- EXPERIMENTAL_SYSTEM: Hypoxia-inducible factor 1-alpha (Homo sapiens)
- EXPERIMENT_NOTES: activators of HIF1alpha nuclear accumulation, confirmation, imaging, fluorescence, U2OS GFP-HIF1alpha (AID 434951)
- CONDITION_LABEL: U2OS GFP-HIF1alpha nuclear intensity, high-content imaging
Active and inactive are the calls of the source.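 The calls were made as follows: active = a fitted half-maximal concentration EC50 for the rise in nuclear signal no higher than ten times the top dose tested; inconclusive = flat fit with activity between 30% and 70%, or unusable fit; inactive = EC50 beyond ten times the top dose.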
MEASURED_PARAMETER: EC50

>  <MOLECULE>
COc1ccc(NC(=O)CCS(=O)(=O)c2ccc3c(c2)CCN3C(C)=O)cc1

>  <EXPERIMENTAL_SYSTEM>
Hypoxia-inducible factor 1-alpha (Homo sapiens)

>  <MEAS_VALUE>
> 35 µM (inactive)

$$$$
>  <MOLECULE>
CN(C)c1nc(-c2ccccn2)nnc1-c1ccccc1

>  <EXPERIMENTAL_SYSTEM>
Hypoxia-inducible factor 1-alpha (Homo sapiens)

>  <MEAS_VALUE>
6.68 µM

$$$$
>  <MOLECULE>
CCN(CCCNC(=O)CCc1nc(-c2ccc(OC)cc2)no1)c1cccc(C)c1

>  <EXPERIMENTAL_SYSTEM>
Hypoxia-inducible factor 1-alpha (Homo sapiens)

>  <MEAS_VALUE>
> 35 µM (inactive)

$$$$
>  <MOLECULE>
COc1ccc(CCNC(=O)c2cc(-c3cccs3)on2)cc1OC

>  <EXPERIMENTAL_SYSTEM>
Hypoxia-inducible factor 1-alpha (Homo sapiens)

>  <MEAS_VALUE>
7.39 µM

$$$$
>  <MOLECULE>
Cc1nc2ccccc2nc1N/N=C/c1ccc(O)cc1O

>  <EXPERIMENTAL_SYSTEM>
Hypoxia-inducible factor 1-alpha (Homo sapiens)

>  <MEAS_VALUE>
36.5 µM

$$$$
>  <MOLECULE>
CCC(C)NCCOc1ccc(C)cc1[N+](=O)[O-] (stereo unspecified)

>  <EXPERIMENTAL_SYSTEM>
Hypoxia-inducible factor 1-alpha (Homo sapiens)

>  <MEAS_VALUE>
> 35 µM (inactive)

$$$$

----------
- EXPERIMENTAL_SYSTEM: Hypoxia-inducible factor 1-alpha (Homo sapiens) (UniProt Q16665)
- Sequence (Q16665 whole entry, looked up): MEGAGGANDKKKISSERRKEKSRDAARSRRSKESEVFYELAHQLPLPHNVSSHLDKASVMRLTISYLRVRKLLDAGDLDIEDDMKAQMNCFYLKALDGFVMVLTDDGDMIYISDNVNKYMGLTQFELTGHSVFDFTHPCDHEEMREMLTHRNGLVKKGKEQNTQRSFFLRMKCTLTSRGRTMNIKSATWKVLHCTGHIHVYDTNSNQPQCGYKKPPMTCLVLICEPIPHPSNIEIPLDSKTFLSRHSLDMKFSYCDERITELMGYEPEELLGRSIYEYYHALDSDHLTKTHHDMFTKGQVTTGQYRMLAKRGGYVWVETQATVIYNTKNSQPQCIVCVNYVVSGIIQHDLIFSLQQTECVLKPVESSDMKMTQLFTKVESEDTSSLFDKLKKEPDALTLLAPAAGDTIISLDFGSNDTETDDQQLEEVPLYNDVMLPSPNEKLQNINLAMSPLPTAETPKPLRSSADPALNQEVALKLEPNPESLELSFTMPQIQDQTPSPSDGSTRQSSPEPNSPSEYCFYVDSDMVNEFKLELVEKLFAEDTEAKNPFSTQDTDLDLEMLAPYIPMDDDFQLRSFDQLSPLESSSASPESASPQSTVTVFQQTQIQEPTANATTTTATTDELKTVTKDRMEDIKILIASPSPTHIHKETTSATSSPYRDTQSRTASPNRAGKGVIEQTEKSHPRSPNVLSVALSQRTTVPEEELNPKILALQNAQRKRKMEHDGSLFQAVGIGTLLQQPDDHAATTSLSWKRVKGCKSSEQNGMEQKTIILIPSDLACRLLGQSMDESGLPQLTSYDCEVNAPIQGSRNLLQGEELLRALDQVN
- EXPERIMENT_NOTES: activators of HIF1alpha nuclear accumulation, confirmation, imaging, fluorescence, U2OS GFP-HIF1alpha (AID 434951)
- CONDITION_LABEL: U2OS GFP-HIF1alpha nuclear intensity, high-content imaging
Calls of active or inactive are those of the source.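 The calls were made as follows: active = a fitted half-maximal concentration EC50 for the rise in nuclear signal no higher than ten times the top dose tested; inconclusive = flat fit with activity between 30% and 70%, or unusable fit; inactive = EC50 beyond ten times the top dose.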
Classes used: True (active), False (inactive)

>  <CPD_SMILES>
Cc1ccn2cc(-c3ccc(O)c(O)c3)nc2c1

>  <CLASSIFICATION>
False

$$$$
>  <CPD_SMILES>
CC1(C)CC(=O)C(CC2C(=O)CC(C)(C)CC2=O)C(=O)C1

>  <CLASSIFICATION>
False

$$$$
>  <CPD_SMILES>
Oc1ccccc1/C=N/Nc1ncc(Br)cn1

>  <CLASSIFICATION>
True

$$$$
>  <CPD_SMILES>
Cc1cc(SCC(=O)N/N=C/c2ccc(O)cc2O)c(C)cc1Br

>  <CLASSIFICATION>
True

$$$$
>  <CPD_SMILES>
CCNC(=O)COc1cccc(C(=O)NCc2ccccc2)c1

>  <CLASSIFICATION>
False

$$$$
>  <CPD_SMILES>
Cc1nc2ccccc2n2c(-c3ccccc3)c3c(=O)n(C)c(=O)n(C)c3c12

>  <CLASSIFICATION>
False

$$$$
>  <CPD_SMILES>
CN(CC(=O)Nc1ccc(S(=O)(=O)N2CCCC2)cc1)CC(=O)Nc1cccc(F)c1

>  <CLASSIFICATION>
False

$$$$
>  <CPD_SMILES>
C/C(=N\NC(=O)Cc1ccc(Br)cc1)c1cccnc1

>  <CLASSIFICATION>
False

$$$$
>  <CPD_SMILES>
O=C1CSCN1c1ccc(Cl)cc1

>  <CLASSIFICATION>
False

$$$$
>  <CPD_SMILES>
O=[N+]([O-])c1ccc(O)c(/C=N/Nc2ccccn2)c1

>  <CLASSIFICATION>
True

$$$$
>  <CPD_SMILES>
COc1ccc(CC(=O)Nc2cccc(-c3nnc(-c4ccccc4)o3)c2)cc1OC

>  <CLASSIFICATION>
False

$$$$

----------
- EXPERIMENTAL_SYSTEM: Hypoxia-inducible factor 1-alpha (Homo sapiens)
- EXPERIMENT_NOTES: activators of HIF1alpha nuclear accumulation, confirmation, imaging, fluorescence, U2OS GFP-HIF1alpha (AID 434951)
- CONDITION_LABEL: U2OS GFP-HIF1alpha nuclear intensity, high-content imaging
Active and inactive are the calls of the source.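 How the source made its calls: active means a fitted half-maximal concentration EC50 for the rise in nuclear signal no higher than ten times the top dose tested; inconclusive means flat fit with activity between 30% and 70%, or unusable fit; inactive means EC50 beyond ten times the top dose.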
Classes used: 1 (active), -1 (inactive)

>  <COMPOUND>
Nc1cc2c3c(cccc3c1)C(=O)N(CCN1CCCC1)C2=O

>  <CLASSIFICATION>
1

$$$$
>  <COMPOUND>
CN(c1cccc(Cl)c1)S(=O)(=O)c1cccc(C(=O)Nc2nc3ccccc3[nH]2)c1

>  <CLASSIFICATION>
-1

$$$$
>  <COMPOUND>
CCOc1nc(NCCN2CCOCC2)nc(Nc2ccc(C)cc2)n1

>  <CLASSIFICATION>
-1

$$$$
>  <COMPOUND>
CCCCC(=O)NC(c1cccs1)c1cc(Cl)c2cccnc2c1O (stereo not drawn)

>  <CLASSIFICATION>
-1

$$$$
>  <COMPOUND>
CCN(CC)CCn1c2ccccc2c2cnc(N)c(C#N)c21

>  <CLASSIFICATION>
-1

$$$$
>  <COMPOUND>
O=C(Nc1ncccc1O)c1ccc(S(=O)(=O)Nc2ccccc2)cc1

>  <CLASSIFICATION>
1

$$$$
>  <COMPOUND>
Cc1cc(Nc2ccccc2)cc(=O)n1C

>  <CLASSIFICATION>
-1

$$$$
>  <COMPOUND>
CC(C)c1nnc(NC(=O)CCC(=O)NC2CC2)s1

>  <CLASSIFICATION>
-1

$$$$
>  <COMPOUND>
COc1ccccc1N1CCN(Cc2ccc(O)c3ncccc23)CC1

>  <CLASSIFICATION>
1

$$$$
>  <COMPOUND>
O=C(N/N=C/c1cc(Br)cc(Br)c1O)c1ccncc1

>  <CLASSIFICATION>
-1

$$$$
>  <COMPOUND>
COc1ccc(C(=O)N/N=C(\c2ccccc2)c2ccccn2)cc1

>  <CLASSIFICATION>
1

$$$$
>  <COMPOUND>
O=C1N/C(=C/c2cccs2)C(=O)N1Cc1ccc(Br)cc1

>  <CLASSIFICATION>
-1

$$$$
>  <COMPOUND>
O=C(CCCc1ccccc1)Nc1ccccn1

>  <CLASSIFICATION>
-1

$$$$
>  <COMPOUND>
COc1ccc(OC)c2sc(N3CCN(C(=O)c4ccc5ncsc5c4)CC3)nc12

>  <CLASSIFICATION>
-1

$$$$
>  <COMPOUND>
CCC(=O)N1CCN(c2nc3ccc(Br)cc3s2)CC1

>  <CLASSIFICATION>
-1

$$$$
>  <COMPOUND>
COc1cccc(/C=N/NC(=O)c2ccc([N+](=O)[O-])cc2Cl)c1O

>  <CLASSIFICATION>
-1

$$$$
>  <COMPOUND>
CCOc1ccc(/C=N/NC(=O)c2[nH]ncc2Br)c(O)c1

>  <CLASSIFICATION>
1

$$$$
>  <COMPOUND>
O=C(N/N=C\c1c(O)ccc2ccccc12)c1cncc(Br)c1

>  <CLASSIFICATION>
1

$$$$
>  <COMPOUND>
O=C(NS(=O)(=O)c1ccc2c(c1)OCCO2)c1ccccc1

>  <CLASSIFICATION>
-1

$$$$
>  <COMPOUND>
COc1cccc(/C=N/NC(=O)c2c(C)nc3ccc(Br)cn23)c1O

>  <CLASSIFICATION>
1

$$$$
>  <COMPOUND>
O=C(N/N=C/c1cc(O)ccc1Br)c1cccnc1

>  <CLASSIFICATION>
-1

$$$$
>  <COMPOUND>
CC(=O)Nc1nc2ccccc2n1CCOc1ccccc1Cl

>  <CLASSIFICATION>
-1

$$$$
>  <COMPOUND>
C[C@@H]1O[C@@H](OC[C@H]2O[C@@H](Oc3c(-c4ccc(O)cc4)oc4cc(O)cc(O)c4c3=O)[C@H](O)[C@@H](O)[C@@H]2O)[C@H](O)[C@H](O)[C@H]1O

>  <CLASSIFICATION>
-1

$$$$
